Form field: IC50 (one value per entry).
Target: T1, human TNFR2 on the surface of CHO-TNFR2 cells (human, UniProt P20333 23-461)
T1 construct: whole, on cells
T1 sequence (looked up): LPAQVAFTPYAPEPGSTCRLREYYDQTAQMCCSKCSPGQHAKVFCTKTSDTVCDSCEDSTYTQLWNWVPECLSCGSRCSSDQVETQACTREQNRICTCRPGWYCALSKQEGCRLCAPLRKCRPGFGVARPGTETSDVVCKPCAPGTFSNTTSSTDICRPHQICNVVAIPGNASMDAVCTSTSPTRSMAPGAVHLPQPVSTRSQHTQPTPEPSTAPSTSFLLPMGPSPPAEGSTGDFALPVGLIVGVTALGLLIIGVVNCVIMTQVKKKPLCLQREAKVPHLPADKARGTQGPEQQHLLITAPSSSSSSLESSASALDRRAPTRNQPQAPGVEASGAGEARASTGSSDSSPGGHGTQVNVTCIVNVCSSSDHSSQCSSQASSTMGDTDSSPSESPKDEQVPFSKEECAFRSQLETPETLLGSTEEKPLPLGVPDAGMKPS
Experiment: competition flow cytometry on CHO-TNFR2 cells, competitor human TNFα-biotin
# number only, unit µg/mL dropped from output

Sample records with IC50:
001-Hu3 (antibody, V domains shown, Humanized form of #001; also called VH1 + VL3) VH: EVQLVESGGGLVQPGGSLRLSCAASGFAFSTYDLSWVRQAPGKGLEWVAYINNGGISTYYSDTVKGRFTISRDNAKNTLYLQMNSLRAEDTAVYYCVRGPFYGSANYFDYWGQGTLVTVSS VL: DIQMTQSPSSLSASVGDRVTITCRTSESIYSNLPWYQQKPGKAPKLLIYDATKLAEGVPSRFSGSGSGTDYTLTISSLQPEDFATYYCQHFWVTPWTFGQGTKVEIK : 0.085
224-Hu7 (antibody, V domains shown, Humanized form of #224; also called VH9 + VL10) VH: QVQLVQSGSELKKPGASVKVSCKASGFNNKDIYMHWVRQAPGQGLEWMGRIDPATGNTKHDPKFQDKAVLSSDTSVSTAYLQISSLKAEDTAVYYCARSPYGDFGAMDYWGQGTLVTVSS VL: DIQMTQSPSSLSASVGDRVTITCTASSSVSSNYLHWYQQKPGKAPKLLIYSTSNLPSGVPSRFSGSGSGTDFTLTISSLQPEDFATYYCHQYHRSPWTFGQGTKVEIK : 0.065
001-Hu2 (antibody, V domains shown, Humanized form of #001; also called VH2 + VL2) VH: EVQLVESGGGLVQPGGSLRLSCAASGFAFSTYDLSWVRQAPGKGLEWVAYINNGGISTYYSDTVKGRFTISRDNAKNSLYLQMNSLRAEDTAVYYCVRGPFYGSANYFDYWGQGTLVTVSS VL: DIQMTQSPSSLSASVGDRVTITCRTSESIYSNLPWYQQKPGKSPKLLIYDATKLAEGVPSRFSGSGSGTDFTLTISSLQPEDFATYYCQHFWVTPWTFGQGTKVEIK : 0.101
219-Hu5 (antibody, V domains shown, also called VH7 + VL5) VH: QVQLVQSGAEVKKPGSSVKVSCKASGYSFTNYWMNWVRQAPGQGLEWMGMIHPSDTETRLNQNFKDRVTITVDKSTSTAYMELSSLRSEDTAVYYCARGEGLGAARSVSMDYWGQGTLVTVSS VL: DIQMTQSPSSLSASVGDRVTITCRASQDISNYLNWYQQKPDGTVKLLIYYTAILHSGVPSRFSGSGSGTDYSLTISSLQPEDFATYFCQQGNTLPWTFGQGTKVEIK : 0.039

Quick note, IC50 for 001-Hu1 (antibody, V domains shown, Humanized form of #001; also called VH1 + VL1) VH: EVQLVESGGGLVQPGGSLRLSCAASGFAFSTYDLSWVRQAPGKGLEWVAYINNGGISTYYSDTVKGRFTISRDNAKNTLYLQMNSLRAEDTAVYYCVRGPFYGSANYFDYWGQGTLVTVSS VL: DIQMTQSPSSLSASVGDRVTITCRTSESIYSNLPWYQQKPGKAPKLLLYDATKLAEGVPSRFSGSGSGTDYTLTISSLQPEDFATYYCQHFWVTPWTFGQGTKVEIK landed at 0.087
